Parameter IC50: see the listing below.
# targetOrSystem: N48K Clarin-1 (Homo sapiens, UniProt P58418, N48K)
# Construct: expressed in transfected cells
# Sequence (P58418 whole entry N48K): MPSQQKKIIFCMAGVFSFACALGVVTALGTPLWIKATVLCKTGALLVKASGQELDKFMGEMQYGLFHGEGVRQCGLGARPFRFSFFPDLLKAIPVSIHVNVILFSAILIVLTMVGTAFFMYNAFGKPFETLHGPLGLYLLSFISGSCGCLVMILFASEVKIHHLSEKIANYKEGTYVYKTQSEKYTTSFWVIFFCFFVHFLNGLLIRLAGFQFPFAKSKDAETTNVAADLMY
# measurementNotes: Restoration of expression of N48K Clarin-1, 2 hour incubation then 22 hr fresh medium (high content imaging of HA-tagged N48K Clarin-1)
# Type: cell-based
# conditionParameters: HEK293-Clarin-1 N48K-HA D9 cell line, 2 hr incubation with compound, then 22 hr in fresh medium

# molecule, IC50
measured = [
    ("F[C@@H]1CCN(CCn2nc(C3=CCOCC3)c3c(Cl)c(-c4ccccc4)nnc32)C1 [Iq]", "4 to 8 µM"),
    ("CS(=O)(=O)CCn1nc(C2CC2)c2c(Cl)c(-c3ccccc3)nnc21 [Ix]", "8 to 12 µM"),
    ("CC1(Cn2nc(-c3ccccc3)c3c(Cl)c(-c4ccccc4)nnc32)COC1 [IIf]", "≤ 4 µM"),
    ("FC1(F)CN(CCn2nc(-c3ccccc3)c3c(Cl)c(-c4ccccc4)nnc32)C1 [IIw]", "4 to 8 µM"),
    ("Cn1nc(-c2ccccc2)c2c(Cl)c(C3=CCCC3)nnc21 [IIIb]", "4 to 8 µM"),
    ("Fc1cccc(-c2nn(CCn3ccnc3)c3nnc(-c4ccccc4)c(Cl)c23)c1 [IIs]", "≤ 4 µM"),
    ("FC1(F)CCN(CCn2nc(-c3ccccc3)c3c(Cl)c(-c4ccccc4)nnc32)C1 [IIv]", "4 to 8 µM"),
    ("Clc1c(-c2ccccc2)nnc2c1c(-c1ccccc1)nn2C[C@H]1CCCO1 [IIj]", "≤ 4 µM"),
    ("COC/C=C/c1nn(CCN2CCN(C)CC2)c2nnc(-c3ccccc3)c(Cl)c12 [Ii]", "≤ 4 µM"),
    ("CN1CCN(CCn2nc(-c3cccn3C)c3c(Cl)c(-c4ccccc4)nnc32)CC1 [Ik]", "≤ 4 µM"),
    ("Cc1nn([C@@H]2C[C@H]3CC[C@@H](C2)N3)c2nnc(-c3ccccc3)c(Cl)c12 [XIIIa]", "4 to 8 µM"),
    ("Clc1c(-c2ccccc2)nnc2c1c(-c1ccccc1)nn2CCn1ccnc1 [IIc]", "≤ 4 µM"),
    ("Cn1nc(N2CCCC2)c2c(Cl)c(-c3ccccc3)nnc21 [XIIIc]", "8 to 12 µM"),
    ("O=C1CCCN1CCn1nc(-c2ccccc2)c2c(Cl)c(-c3ccccc3)nnc21 [IIb]", "≤ 4 µM"),
    ("Cn1nc(-c2ccccc2)c2c(Cl)c(I)nnc21 [IIIa]", "4 to 8 µM"),
    ("Clc1c(-c2ccccc2)nnc2c1c(I)nn2CCN1CCCC1 [Ir]", "≤ 4 µM"),
    ("FCCn1nc(-c2ccccc2)c2c(Cl)c(-c3ccccc3)nnc21 [IIl]", "≤ 4 µM"),
    ("CN1CCN(CCn2nc(-c3ccccn3)c3c(Cl)c(-c4ccccc4)nnc32)CC1 [Iy]", "≤ 4 µM"),
    ("CN1CCN(CCn2nc(-c3cnn(C)c3)c3c(Cl)c(-c4ccccc4)nnc32)CC1 [Ic]", "4 to 8 µM"),
]

====

# targetOrSystem: N48K Clarin-1 (Homo sapiens, UniProt P58418, N48K)
# measurementNotes: Restoration of expression of N48K Clarin-1, 24 hour incubation (high content imaging of HA-tagged N48K Clarin-1)
# conditionParameters: HEK293-Clarin-1 N48K-HA D9 cell line, 24 hr incubation with compound; read-out: IC50 (the source's name)

# querySmiles, targetOrSystem, EC50
measured = [
    ("CN1CCN(CCn2nc3nnc(-c4ccccc4)c(Cl)c3c2I)CC1", "N48K Clarin-1 (Homo sapiens, UniProt P58418, N48K)", "5000 to 21000 nM"),
    ("Clc1c(-c2ccccc2)nnc2c1c(-c1ccccc1)nn2C[C@H]1CCCO1", "N48K Clarin-1 (Homo sapiens, UniProt P58418, N48K)", "≤ 2000 nM"),
    ("Clc1c(-c2ccccc2)nnc2[nH]nc(Br)c12", "N48K Clarin-1 (Homo sapiens, UniProt P58418, N48K)", "2000 to 5000 nM"),
    ("CN1CCN(CCn2nc(-c3ccnc(C(F)(F)F)c3)c3c(Cl)c(-c4ccccc4)nnc32)CC1", "N48K Clarin-1 (Homo sapiens, UniProt P58418, N48K)", "≤ 2000 nM"),
    ("Clc1c(-c2ccccc2)nnc2c1c(-c1ccccc1)nn2Cc1ccccn1", "N48K Clarin-1 (Homo sapiens, UniProt P58418, N48K)", "≤ 2000 nM"),
    ("CN1CCN(CCn2nc(-c3cc4ccccc4[nH]3)c3c(Cl)c(-c4ccccc4)nnc32)CC1", "N48K Clarin-1 (Homo sapiens, UniProt P58418, N48K)", "≤ 2000 nM"),
    ("Fc1cccc(-c2nn(CCn3ccnc3)c3nnc(-c4ccccc4)c(Cl)c23)c1", "N48K Clarin-1 (Homo sapiens, UniProt P58418, N48K)", "≤ 2000 nM"),
    ("CN1CCN(CCn2nc(-c3cccc(C(=O)N4CCCC4)c3)c3c(Cl)c(-c4ccccc4)nnc32)CC1", "N48K Clarin-1 (Homo sapiens, UniProt P58418, N48K)", "≤ 2000 nM"),
    ("Cn1nc(C2CC2)c2c(Cl)c(-c3ccccc3)nnc21", "N48K Clarin-1 (Homo sapiens, UniProt P58418, N48K)", "2000 to 5000 nM"),
    ("CS(=O)(=O)CCn1nc(-c2ccccc2)c2c(Cl)c(-c3ccccc3)nnc21", "N48K Clarin-1 (Homo sapiens, UniProt P58418, N48K)", "≤ 2000 nM"),
    ("O=C1CCCN1CCn1nc(-c2cccc(F)c2)c2c(Cl)c(-c3ccccc3)nnc21", "N48K Clarin-1 (Homo sapiens, UniProt P58418, N48K)", "≤ 2000 nM"),
    ("FCCn1nc(-c2ccccc2)c2c(Cl)c(-c3ccccc3)nnc21", "N48K Clarin-1 (Homo sapiens, UniProt P58418, N48K)", "≤ 2000 nM"),
]
